Test system: MIP
Assay: Antiproliferative activity in human tumor cell lines: MIP (colon)
Assay type: cell-based
Details: PROTOCOL 1 and PROTOCOL 2, 48 hours
Method: The antiproliferative activity of the compounds of Formula I in an Adult Bovine Aortic Endothelial (ABAE) cell line and in Human Tumor cell lines is evaluated in three similar assays that measure growth inhibition. The assays are identified as follows: […] The antiproliferative activity of the compounds of Formula I of the present invention is evaluated in a panel comprised of human tumor cell lines and an adult bovine aortic endothelial cell line (ABAE). […]
Where a name gives a salt, the structure may show the parent alone.
Exam item: assign 1 to entries whose IC50 is below 2 µg/mL and 0 to entries at or above 2 µg/mL. Note that a value of exactly 2 µg/mL receives 0.

Compound	Target or system	Answer label
CN(C)[C@@H]1C(O)=C(C(N)=O)C(=O)[C@@]2(O)C(O)=C3C(=O)c4c(cc(Cl)c(NC(=O)CN5CCCCC5)c4O)CC3CC12 (stereo partly drawn) [Example 10, dihydrochloride]	MIP	1
CN(C)CC(=O)Nc1c(Cl)cc2c(c1O)C(=O)C1=C(O)[C@]3(O)C(=O)C(C(N)=O)=C(O)[C@@H](N(C)C)C3CC1C2 (stereo partly drawn)	MIP	0
CN(C)[C@@H]1C(O)=C(C(N)=O)C(=O)[C@@]2(O)C(O)=C3C(=O)c4c(cc(Cl)c(NC(=O)CN5CCCC5)c4O)CC3CC12 (stereo partly drawn) [Example 9, dihydrochloride]	MIP	1
CCC(C(=O)Nc1c(Cl)cc2c(c1O)C(=O)C1=C(O)[C@]3(O)C(=O)C(C(N)=O)=C(O)[C@@H](N(C)C)C3CC1C2)N(C)C (stereo partly drawn) [Example 18, dihydrochloride]	MIP	0
CCCCCNCC(=O)Nc1c(Cl)cc2c(c1O)C(=O)C1=C(O)[C@]3(O)C(=O)C(C(N)=O)=C(O)[C@@H](N(C)C)C3CC1C2 (stereo partly drawn) [Example 6, dihydrochloride]	MIP	1
CNCC(=O)Nc1c(Cl)cc2c(c1O)C(=O)C1=C(O)[C@]3(O)C(=O)C(C(N)=O)=C(O)[C@@H](N(C)C)C3CC1C2 (stereo partly drawn) [Example 7, dihydrochloride]	MIP	0

Reference source for all entries: patent US5567693A
